The reader will find reported IC50 values listed item by item below.
- tested-system: PIP4K 2A (Homo sapiens, UniProt P48426)
- Sequence (P48426 1-406): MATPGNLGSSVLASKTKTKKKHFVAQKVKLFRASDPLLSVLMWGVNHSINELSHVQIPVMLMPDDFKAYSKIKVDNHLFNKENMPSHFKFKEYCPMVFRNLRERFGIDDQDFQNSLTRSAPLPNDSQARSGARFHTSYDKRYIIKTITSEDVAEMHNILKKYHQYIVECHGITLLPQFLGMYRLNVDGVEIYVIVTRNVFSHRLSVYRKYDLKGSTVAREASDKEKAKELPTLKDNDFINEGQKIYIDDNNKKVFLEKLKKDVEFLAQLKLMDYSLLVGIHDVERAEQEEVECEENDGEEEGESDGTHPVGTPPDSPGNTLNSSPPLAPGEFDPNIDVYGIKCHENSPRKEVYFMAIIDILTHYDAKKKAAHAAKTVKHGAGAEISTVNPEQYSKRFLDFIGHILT
- protocol-details: ADP-glo kinase assay PIP4K 2A
- Format: biochemical
- Parameters: 4 nM PIP4K2A (full length protein, SignalChem); purchased SignalChem
- assay-conditions: compounds listed under IC50 bin headings

molecule	measurement-label	result
CC1Oc2cc(N3CCCC3=O)ccc2-c2cnc(Nc3cccnn3)cc21 (stereo not drawn) [Example 128]	IC50	10 to 100 nM
CC1Oc2cc(N3CCCC3=O)ccc2-c2cnc(Nc3cnc4c(c3)N3C(=O)C(C)(C)C[C@H]3CO4)cc21 (stereo partly drawn) [Example 156]	IC50	≤ 1 nM
CN(C)C(=O)c1ccc2c(c1)OC(C1CC1)c1cc(Nc3cnc4c(c3)N3C(=O)CC[C@H]3CO4)ncc1-2 (stereo partly drawn) [Example 36]	IC50	≤ 1 nM
CC1Oc2cc(N3CCCC3=O)ccc2-c2cnc(Nc3cncc(NC(=O)Nc4ccccn4)c3)cc21 (stereo not drawn) [Example 102]	IC50	1 to 10 nM

Find the recorded IC50 belonging to CC1Oc2cc(N3CCCC3=O)ccc2-c2cnc(Nc3cncc(N(C4CC4)S(C)(=O)=O)c3)cc21 (stereo not drawn) [Example 51] and report it.
1 to 10 nM

Find the recorded IC50 belonging to CC(O)C(=O)N1CCOc2ncc(Nc3cc4c(cn3)-c3ccc(N5CCCC5=O)cc3OC4C)cc21 (stereo not drawn) [Example 60] and report it.
≤ 1 nM

Find the recorded IC50 belonging to CC1(C)Oc2cc(N3CCCC3=O)c(F)cc2-c2cnc(Nc3cnc4c(c3)N3C(=O)CC[C@@H]3CO4)cc21 [Example 184] and report it.
≤ 1 nM

Find the recorded IC50 belonging to CC1Oc2cc(C(=O)N(C)C)ccc2-c2cnc(Nc3cnc4c(c3)N(C(=O)C(C)(C)C)CCO4)cc21 (stereo not drawn) [Example 67] and report it.
≤ 1 nM

Find the recorded IC50 belonging to CC(=O)N1CCOc2ncc(Nc3cc4c(cn3)-c3ccc(C(=O)N(C)C)cc3OC4C)cc21 (stereo not drawn) [Example 70] and report it.
≤ 1 nM

Find the recorded IC50 belonging to CC1Oc2cc(N3CCCC3=O)ccc2-c2cnc(Nc3cncc(NC(=O)c4cccc(N)c4)c3)cc21 (stereo not drawn) [Example 106] and report it.
1 to 10 nM

Find the recorded IC50 belonging to CC1c2cc(Nc3cnc4c(c3)N3C(=O)CC[C@H]3CO4)ncc2-c2ccc(N3CCCC3=O)cc2N1C (stereo partly drawn) [Example 44] and report it.
1 to 10 nM

Find the recorded IC50 belonging to CC1Oc2cc(N3CCCC3=O)ccc2-c2cncc(Nc3ccncc3)c21 (stereo not drawn) [Example 203] and report it.
> 1000 nM

Find the recorded IC50 belonging to CC1Oc2cc(N3CCCC3=O)ccc2-c2cnc(Nc3cnc4c(c3)N(C(=O)CO)CCO4)cc21 (stereo not drawn) [Example 61] and report it.
≤ 1 nM

Find the recorded IC50 belonging to CC(=O)Nc1cncc(Nc2cc3c(cn2)-c2ccc(N4CCCC4=O)cc2OC3C)c1 (stereo not drawn) [Example 100] and report it.
10 to 100 nM

Find the recorded IC50 belonging to CC1Oc2cc(C(=O)N(C)C)ccc2-c2cnc(Nc3cnc4c(c3)N(S(=O)(=O)C3CC3)CCO4)cc21 (stereo not drawn) [Example 72] and report it.
1 to 10 nM
